- Tested on: KRAS patient-derived spheroids with HUVEC/MSC, viability
- experiment summary: Anticancer human tumor 323965-272-R-J2-PDC patient-derived pancreatic carcinoma cell line growth inhibition [KRAS2]
- reported conditions: compound 1 µM; stronger effect = lower value
measurement name: viability, T/C

Worked set:
>>> value("CC(=O)OC12COC1CC(O)C1(C)C(=O)C(O)C3=C(C)C(OC(=O)C(O)C(NC(=O)OC(C)(C)C)c4ccccc4)CC(O)(C(OC(=O)c4ccccc4)C21)C3(C)C (centres undefined)")
"34% [middle of 5 runs]"
>>> value("CNCc1ccccc1-c1csc(C(C)Nc2nc(C)nc3cc(OC)c(OC)cc23)c1 (centres undefined)")
"89.2% [middle of 16 runs]"
>>> value("CCNC(=O)CC1N=C(c2ccc(Cl)cc2)c2cc(OC)ccc2-n2c(C)nnc21 (centres undefined)")
"44.5% [middle of 5 runs]"

Continue with the molecule presented below.
Answer with the recorded viability, T/C for the molecule listed here: COc1cc(OC)cc(N(CCNC(C)C)c2ccc3ncc(-c4cnn(C)c4)nc3c2)c1
103% [middle of 5 runs]

* * *

- Tested on: KRAS patient-derived spheroids with HUVEC/MSC, viability
- experiment summary: Anticancer human tumor 323965-272-R-J2-PDC cell line growth inhibition [KRAS2];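 also: spheroids exposed to agents for 7 days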;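 as to viability, T/C: 100% = DMSO vehicle control viability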
- reported conditions: second compound 1 µM; first compound 0.1 µM; stronger effect = lower value
The threshold is 60%. Values of viability, T/C beneath it are tagged 1; values meeting or exceeding it are tagged -1.

>>> cat("Cn1nccc1Nc1nccc(-c2cc3c(s2)C(C)(C)N(CCN2CCOCC2)C3=O)n1 + C=CC(=O)N1CCN(c2nc(OCC3CCCN3C)nc3c2CCN(c2cccc4cccc(C)c24)C3)CC1CC#N")
1
>>> cat("Cn1nccc1Nc1nccc(-c2cc3c(s2)C(C)(C)N(CCN2CCOCC2)C3=O)n1 + COc1cc2nc(C)nc(NC(C)c3cc(N)cc(C(F)(F)F)c3)c2cc1OC1CCOC1")
1
>>> cat("CN(C)C/C=C/C(=O)Nc1cc2c(Nc3ccc(F)c(Cl)c3)ncnc2cc1O[C@H]1CCOC1 + C=CC(=O)N1CCN(c2nc(OCC3CCCN3C)nc3c2CCN(c2cccc4cccc(C)c24)C3)CC1CC#N")
1
>>> cat("COc1cc2nccc(Oc3ccc(NC(=O)C4(C(=O)Nc5ccc(F)cc5)CC4)cc3)c2cc1OC + CNCc1ccccc1-c1csc(C(C)Nc2nc(C)nc3cc(OC)c(OC)cc23)c1")
-1
>>> cat("CN(C)C/C=C/C(=O)Nc1cc2c(Nc3ccc(F)c(Cl)c3)ncnc2cc1O[C@H]1CCOC1 + COc1cc2nc(C)nc(NC(C)c3cc(N)cc(C(F)(F)F)c3)c2cc1OC1CCOC1")
-1

Report whether reported viability, T/C is lower than 60% (strictly) for CC1(C)CCC(CN2CCN(c3ccc(C(=O)NS(=O)(=O)c4ccc(NCC5CCOCC5)c([N+](=O)[O-])c4)c(Oc4cnc5[nH]ccc5c4)c3)CC2)=C(c2ccc(Cl)cc2)C1 + C=CC(=O)N1CCN(c2nc(OCC3CCCN3C)nc3c2CCN(c2cccc4cccc(C)c24)C3)CC1CC#N
-1

Report whether reported viability, T/C is lower than 60% (strictly) for CC1(C)CCC(CN2CCN(c3ccc(C(=O)NS(=O)(=O)c4ccc(NCC5CCOCC5)c([N+](=O)[O-])c4)c(Oc4cnc5[nH]ccc5c4)c3)CC2)=C(c2ccc(Cl)cc2)C1 + C=CC(=O)N1CCN(c2nc(=O)n(-c3c(C)ccnc3C(C)C)c3nc(-c4c(O)cccc4F)c(F)cc23)C(C)C1
-1

Report whether reported viability, T/C is lower than 60% (strictly) for CN(C)C/C=C/C(=O)Nc1cc2c(Nc3ccc(F)c(Cl)c3)ncnc2cc1O[C@H]1CCOC1 + C=CC(=O)N1CCN(c2nc(=O)n(-c3c(C)ccnc3C(C)C)c3nc(-c4c(O)cccc4F)c(F)cc23)C(C)C1
1

Report whether reported viability, T/C is lower than 60% (strictly) for Cn1ncnc1[C@H]1c2n[nH]c(=O)c3cc(F)cc(c23)N[C@@H]1c1ccc(F)cc1 + C=CC(=O)N1CCN(c2nc(OCC3CCCN3C)nc3c2CCN(c2cccc4cccc(C)c24)C3)CC1CC#N
1

* * *

- Tested on: KRAS patient-derived spheroids with HUVEC/MSC, viability
- experiment summary: Anticancer human tumor 323965-272-R-J2-PDC cell line growth inhibition [KRAS2];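 also: spheroids exposed to agents for 7 days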
- reported conditions: curve of first compound; second compound 1 µM
The threshold is 1 µM. Values of IC50 beneath it are tagged t; values meeting or exceeding it are tagged f.

Would you please look over these solved cases?
>>> cat("O=C(c1cc(Cc2n[nH]c(=O)c3ccccc23)ccc1F)N1CCN(C(=O)C2CC2)CC1 + C=CC(=O)N1CCN(c2nc(=O)n(-c3c(C)ccnc3C(C)C)c3nc(-c4c(O)cccc4F)c(F)cc23)C(C)C1")
"f"
>>> cat("CC1(C)CCC(CN2CCN(c3ccc(C(=O)NS(=O)(=O)c4ccc(NCC5CCOCC5)c([N+](=O)[O-])c4)c(Oc4cnc5[nH]ccc5c4)c3)CC2)=C(c2ccc(Cl)cc2)C1 + COc1cc2nc(C)nc(NC(C)c3cc(N)cc(C(F)(F)F)c3)c2cc1OC1CCOC1")
"f"
>>> cat("CC1(C)CCC(CN2CCN(c3ccc(C(=O)NS(=O)(=O)c4ccc(NCC5CCOCC5)c([N+](=O)[O-])c4)c(Oc4cnc5[nH]ccc5c4)c3)CC2)=C(c2ccc(Cl)cc2)C1 + C=CC(=O)N1CCN(c2nc(=O)n(-c3c(C)ccnc3C(C)C)c3nc(-c4c(O)cccc4F)c(F)cc23)C(C)C1")
"f"
>>> cat("CCNC(=O)CC1N=C(c2ccc(Cl)cc2)c2cc(OC)ccc2-n2c(C)nnc21 (stereo not given) + COc1cc2nc(C)nc(NC(C)c3cc(N)cc(C(F)(F)F)c3)c2cc1OC1CCOC1")
"t"

Consider now this further compound.
Report whether reported IC50 is lower than 1 µM (strictly) for CC(C)NCC(C(=O)N1CCN(c2ncnc3c2C(C)CC3O)CC1)c1ccc(Cl)cc1 (stereo not given) + COc1cc2nc(C)nc(NC(C)c3cc(N)cc(C(F)(F)F)c3)c2cc1OC1CCOC1
t

* * *

- Tested on: KRAS patient-derived spheroids with HUVEC/MSC, viability
- experiment summary: Anticancer human tumor 323965-272-R-J2-PDC cell line growth inhibition [KRAS2];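 also: spheroids exposed to agents for 7 days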
- reported conditions: curve of first compound; second compound 1 µM
measurement name: IC50

Worked set:
>>> value("CC1COCCN1c1cc(-c2ccnn2C)c2ccnc(-c3ccn[nH]3)c2n1 (stereo not given) + CC1OCC2(CCN(c3cnc(Sc4ccnc(N)c4Cl)c(N)n3)CC2)C1N")
"< 0.01 µM"
>>> value("CCN1CCN(Cc2ccc(Nc3ncc(F)c(-c4cc(F)c5nc(C)n(C(C)C)c5c4)n3)nc2)CC1 + CNCc1ccccc1-c1csc(C(C)Nc2nc(C)nc3cc(OC)c(OC)cc23)c1")
"> 1 µM"
>>> value("CN(C)C/C=C/C(=O)Nc1cc2c(Nc3ccc(F)c(Cl)c3)ncnc2cc1O[C@H]1CCOC1 + C=CC(=O)N1CCN(c2nc(=O)n(-c3c(C)ccnc3C(C)C)c3nc(-c4c(O)cccc4F)c(F)cc23)C(C)C1")
"0.00187 µM"
>>> value("COC(=O)c1ccc2c(C(=Nc3ccc(N(C)C(=O)CN4CCN(C)CC4)cc3)c3ccccc3)c(O)[nH]c2c1 + COc1cc2nc(C)nc(NC(C)c3cc(N)cc(C(F)(F)F)c3)c2cc1OC1CCOC1")
"> 10 µM"

Answer with the recorded IC50 for the molecule listed here: CC1COCCN1c1cc(-c2ccnn2C)c2ccnc(-c3ccn[nH]3)c2n1 (stereo not given) + C=CC(=O)N1CCN(c2nc(OCC3CCCN3C)nc3c2CCN(c2cccc4cccc(C)c24)C3)CC1CC#N
< 0.01 µM

* * *

- Test system: KRAS patient-derived spheroids with HUVEC/MSC, viability
- experiment summary: Anticancer human tumor 323965-272-R-J2-PDC cell line growth inhibition [KRAS2];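 also: spheroids exposed to agents for 7 days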;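 as to viability, T/C: 100% = DMSO vehicle control viability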
- reported conditions: second compound 0.316 µM; first compound 1 µM; stronger effect = lower value
measurement name: viability, T/C (%)
Numeric answer only, unit % assumed.

Worked set:
>>> value("O=C(c1cc(Cc2n[nH]c(=O)c3ccccc23)ccc1F)N1CCN(C(=O)C2CC2)CC1 + COc1cc2nc(C)nc(NC(C)c3cc(N)cc(C(F)(F)F)c3)c2cc1OC1CCOC1")
84.9
>>> value("CCN1CCN(Cc2ccc(Nc3ncc(F)c(-c4cc(F)c5nc(C)n(C(C)C)c5c4)n3)nc2)CC1 + CC1OCC2(CCN(c3cnc(Sc4ccnc(N)c4Cl)c(N)n3)CC2)C1N")
42.3

Continue with the compound presented below.
Answer with the recorded viability, T/C for the compound listed here: CCN1CCN(Cc2ccc(Nc3ncc(F)c(-c4cc(F)c5nc(C)n(C(C)C)c5c4)n3)nc2)CC1 + COc1cc2nc(C)nc(NC(C)c3cc(N)cc(C(F)(F)F)c3)c2cc1OC1CCOC1
48.3
